Biological target: T1, human complement factor D purified from serum (human, UniProt P00746 26-253)
T1 construct: serum-purified (CompTech); also called hCFD-Comptech; CFD
T1 sequence (P00746 26-253): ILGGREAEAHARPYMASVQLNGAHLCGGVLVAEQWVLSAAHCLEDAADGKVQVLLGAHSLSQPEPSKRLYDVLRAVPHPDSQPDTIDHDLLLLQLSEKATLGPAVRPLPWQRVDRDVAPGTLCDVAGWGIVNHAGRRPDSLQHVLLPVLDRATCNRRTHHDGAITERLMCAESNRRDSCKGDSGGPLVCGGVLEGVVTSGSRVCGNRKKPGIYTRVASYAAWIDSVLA
Binary label based on Kd with cut-off 0.06 nM: below gives fulfilled, not below gives not fulfilled.

Check out these entries, answers already filled in.
Does KCD131 (antibody, V domains shown, chimeric) VH: QVQLQQSGPELVKPGASVKISCKASAYTFTDYYINWVKQRPGQGPEWIGWIFPGSNSTYSNEKFEVKATLTVDESSSTAYMLLSSLTSEDSAVYFCARLGYFGSSYHALDYWGQGTSVTVSS VL: DIQMTQSPASLSVSVGETVTITCRASENIYSHLAWFQQKQGKSPRLLVYSATNLPDGVPSRFSGSGSGTQYSLKINILQSEDFGSYYCQHFWGTPWTFGGGTKLEIK have Kd strictly under 0.06 nM? fulfilled

Note, next up: KCD101 (antibody, V domains shown, chimeric) VH: QVQLQQPGAELVRPGTSVKLSCKASGYTFTSYWMHWVKQRPGQGLEWIGVIDPSDSYTNYNQKFKGKATLTVDTSSSTAYMQLSSLTSEDSAVYYCGRNGYDGSMDYWGQGTSVTVSS VL: DIQMTQTTSSLSASLGDRVTISCRASQDISNYLNWYQQKPDGTVKLLIYYPSRLHSGVPSRFSGSGSGTDYSLTISNLEQEDFATYFCQQGNTLPYTFGGGTKLEIK not fulfilled

Note, next up: KCD002 (antibody, V domains shown, chimeric) VH: EVKLVESEGGLVQPGSSMKLSCTASGFTFSDYYMAWVRQVPEKGLEWVGNINYDGSSTYYLDSLKSRFIISRDSAKNILYLQMSSLKSEDTATYFCARGEDFYLYAMDYWGQGTSVTVSS VL: DIQMTQSPASLSASVGETVTITCRASENIHSYLAWYQQKQGKSPQLIVYNTKTLAEGVPSRFSGSGSGTQFSLKINSLQPEDFGSYYCQHHYGIPPTFGGGTKLEIK fulfilled

Note, next up: KCD103 (antibody, V domains shown, chimeric) VH: QVQLQQPGAELVRPGTSVKLSCKASGYTFTSYWMHWVKQRPGQGLEWIGVIDPSDSYTKYNQKFKDKATLTVETSSSTAYMQLSSLTSEDSAVYYCAGNGYDGSMDYWGQGTSVTVSS VL: DIQMTQTTSSLSASLGDRVTISCRASQDISNSLNWYQQKPDGTVKLLIYYTSRLHSRVPSRFSGSGSGTDYSLTISNLDQEDIATYFCQQANTLPYTFGGGTKLEIK not fulfilled

Note, next up: KCD102 (antibody, V domains shown, chimeric) VH: QVQLQQPGAELVRPGTSVKLSCKASGYTFTSYWMHWVKQRPGQGLEWIGVIDPSDSYTNYNQKFKGKATLTVDTSSSTAYMQLSSLTSEDSAVYYCARNGYDGSMDYWGQGTSVTVSS VL: EIQMTQTTSSLSASLGDRVTISCRASQDISNYLNWYQQKPDGTVKLLIYYPSRLHSGVPSRFSGSGSGTDYSLTISNLEQEDFATYFCQQGNTLPYTFGGGTKLEIK not fulfilled

Note, next up: KCD220 (antibody, V domains shown, chimeric) VH: QVQLQQSGAELMEPGASVKLSCKATGYTFTGYWIEWVKQRPGHGLEWIGETLPGSDSNNYNEKFKGKATFTADTSSNTAYMQLSSLTTEDSAIYYCARDYSNYWYFDVWGTGTTVTVSS VL: DIQMTQTTSSLSASLGDRVTISCRASQDISNYLNWYQQKPDGTVKLLIYYTSNLHSGVPSRFSGSGSGTDYSLTISNLEQEDIATYFCQQDSKHRTFGGGTKLEIK not fulfilled

# input for lookup
Does KCD104 (antibody, V domains shown, chimeric) VH: QVQLQQPGAELVRPGTSVKLSCKASGYTFTSYWMHWVKQRPGQGLEWIGVIDPSDSYTYYNQKFKGKATLTVDTSSSTAYMQLSSLTSEDSAVYYCARNGYDGAMDYWGQGTSVTVSS VL: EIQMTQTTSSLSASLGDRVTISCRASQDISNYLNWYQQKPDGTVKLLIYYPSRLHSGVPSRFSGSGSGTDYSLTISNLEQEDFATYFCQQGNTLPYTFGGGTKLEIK have Kd strictly under 0.06 nM? not fulfilled
